molecular target: CHK2 (UniProt O96017); assay: F-EMSA; conditions: 25 mM Tris-HCl pH 8.0, 10 mM NaCl, 25 mM KCl, 5 mM MgCl2, 0.01% IGEPAL CA630, 10 ug/ml yeast tRNA, SUPERase-In; 2 nM RNA, room temperature 2 h; F-EMSA on …
Sequence (O96017 whole entry): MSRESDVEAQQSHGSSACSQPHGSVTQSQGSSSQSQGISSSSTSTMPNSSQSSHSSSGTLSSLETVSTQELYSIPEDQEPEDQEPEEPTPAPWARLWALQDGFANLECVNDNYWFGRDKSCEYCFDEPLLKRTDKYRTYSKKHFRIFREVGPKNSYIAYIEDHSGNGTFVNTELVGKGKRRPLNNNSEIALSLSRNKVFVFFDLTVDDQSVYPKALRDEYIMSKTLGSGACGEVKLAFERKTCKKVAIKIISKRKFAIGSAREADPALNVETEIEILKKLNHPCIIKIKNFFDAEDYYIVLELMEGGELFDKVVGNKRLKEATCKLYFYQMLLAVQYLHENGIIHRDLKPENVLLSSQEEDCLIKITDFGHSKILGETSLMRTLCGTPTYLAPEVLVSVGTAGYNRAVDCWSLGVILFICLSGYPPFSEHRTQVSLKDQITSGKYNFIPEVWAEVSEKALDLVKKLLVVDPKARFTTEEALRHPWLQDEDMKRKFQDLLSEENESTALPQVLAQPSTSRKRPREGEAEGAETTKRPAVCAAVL
pKd: −log10 of the molar value.
propertyName: pKd

sequenceData: GGGAAUGGAUCCACAUCUACGAAUUCGAUCGGUUCCAACGCUCUGUCGCCUAAGUGAACAGAUGAAGAAAAAAUAGCCCAAUAAGAGGCAACAAUCUUUCACUGCAGACUUGACGAAGCUU [C6M1]
testResult: 6.74
